- assayed-system: Angiotensin-converting enzyme (Rattus norvegicus)
pIC50: −log10 of the molar value.
measured-quantity: pIC50

• CC(C)[C@H](NC(=O)[C@@H](S)CCc1ccccc1)C(=O)N[C@@H](Cc1ccc(O)cc1)C(=O)O = 8.80
• CC[C@@H](C)[C@H](NC(=O)[C@@H](S)Cc1ccccc1)C(=O)N1CCCC1C(=O)O (stereo partly drawn) = 8.77
• CC[C@@H](C)[C@H](S)C(=O)N[C@H](C(=O)N[C@@H](Cc1ccc(O)cc1)C(=O)O)C(C)c1ccccc1 (stereo partly drawn) = 7.48

(a) O=C(O)[C@H](Cc1ccc(O)cc1)NC(=O)[C@H](Cc1ccccc1)NC(=O)[C@@H](S)Cc1ccccc1
(b) O=C(O)[C@H](Cc1cccc2ccccc12)NC(=O)[C@H](Cc1ccccc1)NC(=O)[C@@H](S)Cc1ccccc1
Name the one with the greater pIC50 value, either a or b as given. Let me know the label of the one you choose.
a
(a: 8.25, b: 7.30)

---

- assayed-system: Angiotensin-converting enzyme (Rattus norvegicus, UniProt P47820)
- Sequence (P47820 whole entry): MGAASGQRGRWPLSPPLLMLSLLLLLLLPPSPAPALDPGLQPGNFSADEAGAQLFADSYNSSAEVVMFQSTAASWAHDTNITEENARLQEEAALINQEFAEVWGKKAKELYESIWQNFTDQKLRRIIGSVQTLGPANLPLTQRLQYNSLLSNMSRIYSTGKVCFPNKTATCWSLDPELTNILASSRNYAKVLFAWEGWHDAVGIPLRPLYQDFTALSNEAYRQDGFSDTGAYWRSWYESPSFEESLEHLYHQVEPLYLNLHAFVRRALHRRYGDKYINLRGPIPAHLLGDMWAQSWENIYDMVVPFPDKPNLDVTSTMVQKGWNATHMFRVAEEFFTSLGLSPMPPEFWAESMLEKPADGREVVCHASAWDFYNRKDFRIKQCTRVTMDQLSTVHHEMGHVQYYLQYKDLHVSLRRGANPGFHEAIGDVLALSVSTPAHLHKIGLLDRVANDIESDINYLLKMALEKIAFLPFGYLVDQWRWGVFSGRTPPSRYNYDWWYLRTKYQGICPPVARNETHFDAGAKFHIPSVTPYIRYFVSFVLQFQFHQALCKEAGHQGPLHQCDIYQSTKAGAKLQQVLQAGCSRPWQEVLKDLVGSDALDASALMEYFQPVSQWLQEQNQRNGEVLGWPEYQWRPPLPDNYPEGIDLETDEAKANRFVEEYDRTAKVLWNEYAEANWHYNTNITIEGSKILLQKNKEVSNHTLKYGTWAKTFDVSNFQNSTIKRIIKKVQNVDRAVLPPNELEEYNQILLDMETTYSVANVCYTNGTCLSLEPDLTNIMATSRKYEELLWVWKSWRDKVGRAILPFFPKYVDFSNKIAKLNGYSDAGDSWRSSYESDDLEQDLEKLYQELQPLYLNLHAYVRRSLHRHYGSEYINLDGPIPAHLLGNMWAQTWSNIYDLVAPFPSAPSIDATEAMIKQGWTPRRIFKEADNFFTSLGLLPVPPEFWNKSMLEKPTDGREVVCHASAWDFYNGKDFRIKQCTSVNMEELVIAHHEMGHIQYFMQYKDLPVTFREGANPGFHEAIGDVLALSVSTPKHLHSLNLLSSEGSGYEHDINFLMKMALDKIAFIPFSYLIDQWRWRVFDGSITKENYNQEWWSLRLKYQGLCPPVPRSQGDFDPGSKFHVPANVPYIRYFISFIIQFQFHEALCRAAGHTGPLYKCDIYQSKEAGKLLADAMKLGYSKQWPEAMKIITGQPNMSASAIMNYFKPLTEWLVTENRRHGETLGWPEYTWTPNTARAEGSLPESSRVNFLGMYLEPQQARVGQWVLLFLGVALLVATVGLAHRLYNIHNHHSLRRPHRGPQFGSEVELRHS
measured-quantity: IC50 (nM)

- CC(C)(NC(=O)[C@@H](S)CCc1ccccc1)C(=O)N1CCCC1C(=O)O (stereo partly drawn): 1.6

(I) CC(C)[C@H](NC(=O)[C@@H](S)Cc1ccccc1)C(=O)N[C@@H](Cc1ccc(O)cc1)C(=O)O
(II) CC[C@H](C)[C@H](NC(=O)[C@@H](S)Cc1ccccc1)C(=O)N[C@@H](Cc1ccc(O)cc1)C(=O)O
From the items above, decide which of I and II has the lower IC50 reading. Let me know the label of the one you choose.
II
(II: 2.5 nM, I: 4 nM)
